Target System: Serine/threonine-protein kinase 17A (Homo sapiens, UniProt Q9UEE5)
Sequence (Q9UEE5 whole entry): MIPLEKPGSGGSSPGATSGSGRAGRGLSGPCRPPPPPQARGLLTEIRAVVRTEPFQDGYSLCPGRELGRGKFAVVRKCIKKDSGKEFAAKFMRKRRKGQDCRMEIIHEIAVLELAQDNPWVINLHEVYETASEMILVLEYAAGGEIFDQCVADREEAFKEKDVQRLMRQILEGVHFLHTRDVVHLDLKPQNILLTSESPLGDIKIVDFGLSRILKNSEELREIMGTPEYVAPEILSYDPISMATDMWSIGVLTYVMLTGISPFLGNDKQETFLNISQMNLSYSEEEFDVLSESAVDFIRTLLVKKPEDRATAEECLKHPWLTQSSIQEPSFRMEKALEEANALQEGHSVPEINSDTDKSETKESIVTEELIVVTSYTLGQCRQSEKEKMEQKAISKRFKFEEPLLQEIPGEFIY
Quantity Measured: IC50 (nM)

[[record]]
chemical_string = "O=C(NC1CCNCC1)c1ccc(Nc2nccc(-c3ccc4nc(N5CCCC5)ncc4c3)n2)cc1"
target_system = "Serine/threonine-protein kinase 17A (Homo sapiens, UniProt Q9UEE5)"
quantity_measured = "IC50"
display_unit = "nM"
value_reported = 316

[[record]]
chemical_string = "COC(=O)N1CCC(c2ccc(Nc3nccc(-c4ccc5nc(N6C[C@@H]7C[C@H]6CO7)ncc5c4)n3)cn2)CC1"
target_system = "Serine/threonine-protein kinase 17A (Homo sapiens, UniProt Q9UEE5)"
quantity_measured = "IC50"
display_unit = "nM"
value_reported = 29


P: OCCN1C[C@@H]2C[C@H]1CN2c1ccc(Nc2ncc(F)c(-c3ccc4nc(N5CCCC5)ncc4c3)n2)cn1
Q: CC(C)NC(=O)c1ccc(Nc2nccc(-c3ccc4nc(N5CCCC5)ncc4c3)n2)cn1
R: CC(C)NC(=O)c1ccc(Nc2nccc(-c3ccc4nc(N5CCOCC5)ncc4c3)n2)cc1
S: CC(C)NC(=O)c1cccc(Nc2nccc(-c3ccc4nc(N5CCCC5)ncc4c3)n2)c1
Exercise: Arrange the 4 entries by IC50 so the values rise. Give the labels in the order specified.
Key: Q, R, P, S
(Q: 12 nM, R: 20 nM, P: 48 nM, S: 144 nM)

The origin of these recorded values is ChEMBL document CHEMBL5532747.
